Exercise: state measured TGI for each of the compounds provided.
System: SF-268 CNS
protocolDetails: NCI tumour cell line growth inhibition, 48 h
One number for each entry, in µM.

inputSmiles: CCCCCCCCCCCCCCCCCC[n+]1ccc2c(C)c3c(c(C)c2c1)c1cc(O)ccc1n3CC
unitsText: µM
TGI: 5.11

Now, please, on to the next compound.
GET /values?readout=TGI&item= C=C(Br)CNC(=O)Nc1ccc(Cl)c(Cl)c1
91.9

---

Test system: KM12 colon
protocolDetails: NCI tumour cell line growth inhibition, 48 h
measure: TGI

Reference set (3 entries):
molecule: O=c1nc(NC2CCCCO2)ccn1CCO (centres undefined)
TGI: > 100 µM
//
molecule: CC(=O)NC(CCCNC(=O)N(CCCl)N=O)C(=O)NCc1ccccc1 (centres undefined)
TGI: > 100 µM
//
molecule: CC(=O)C1C(=O)C(=O)N(c2cccc([N+](=O)[O-])c2)C1=O (centres undefined)
TGI: > 100 µM

Pending molecule:
Find the measured TGI: item Cn1c(=O)c2[nH]c(CCNC(=O)c3ccccc3)nc2n(C)c1=O , target or system KM12 colon.
> 100 µM

---

Tested on: UACC-257 melanoma
protocolDetails: NCI tumour cell line growth inhibition, 48 h
Hi there, I'd appreciate the recorded GI50 for every entry that follows.

molecule: C[C@@H]1CN(Cc2ccc(F)cc2)[C@@H](C)CN1C(=O)c1cc2c(C(=O)C(=O)N(C)C)cn(C)c2cc1Cl
studyTarget: UACC-257 melanoma
GI50: 15.7 µM

Respectfully, I request GI50 for each entry included below.
1. N#Cc1c(N2CCOCC2)nc(=S)[nH]c1-c1ccco1
2. O=C(O)CN1CCN(CC(=O)O)CC(=O)[O][Hg][O]C(=O)C1
3. CCCCCCCCCCCCCCCCCC1=NCCN1CCOC1=C(Cl)C(=O)c2ccccc2C1=O
4. CCOC(=O)C1=C(C)N(c2ccc(Cl)cc2)[C@]2(C#N)C(O)=C(Cl)C(Cl)=C(O)[C@]12C#N
5. COc1cccc(OC(=O)c2ccc(C(F)(F)F)nc2Nc2cc(Cl)ccc2C)c1
6. O=[N+]([O-])c1ccc(C=Cc2ccccc2)cc1.[C-]#[O+].[C-]#[O+].[C-]#[O+].[Cr]

["22.4 µM", "15.4 µM", "1.83 µM", "> 100 µM", "13.3 µM", "44.4 µM"]

For each of the molecules below, state GI50.
1. CC(=O)OC12C=C(C)C(C(C)C1)C1C(=O)N(CCN3CCOCC3)C(=O)C12 (stereo not drawn)
2. CN[C@@H](C)C(=O)N[C@H](C(=O)N1CCC[C@H]1C(=O)Nc1sc(-c2ncco2)nc1-c1ccccc1)C1CCCCC1
3. COc1ccc2cc1Oc1ccc(cc1)C[C@H]1c3c(cc4c(c3Oc3cc5c(cc3OC)CCN(C)[C@@H]5C2)OCO4)CCN1C
4. COc1cc2nc(N3CCCC3)nc(NCCc3ccccc3)c2cc1OC
5. COc1cc(N2C(=O)[C@H](O)C2c2ccc(SC)cc2)cc(OC)c1OC (stereo partly drawn)

["> 100 µM", "17.5 µM", "0.727 µM", "1.89 µM", "14.6 µM"]

Recorded GI50 of N#CC1(C(N)=O)C(c2ccc(Cl)cc2)CC(=O)CC1c1ccc(Cl)cc1 (stereo not drawn) , please.
17.5 µM
